# Species: Homo sapiens
# Test description: Selectivity ratio of IC50 for human recombinant MAO-B to IC50 for human recombinant MAO-A
# maps each entry to its Ratio IC50
Reported endpoint: Ratio IC50

1. C#CCNCc1cc2cc(OCCCC3CCN(Cc4ccccc4)CC3)ccc2n1C: 27.3
2. C=CCNCc1cc2cc(OCCCC3CCN(Cc4ccccc4)CC3)ccc2n1C: 15.6

* * *

# Test description: Selectivity ratio of IC50 for equine serum BuChE to IC50 for electric eel AChE
Reported endpoint: Ratio IC50

1) C#CCNC(=O)c1cc2cc(OCCCC3CCN(Cc4ccccc4)CC3)ccc2n1C: > 770
2) Cn1c(C(=O)NCc2ccccc2)cc2cc(OCCCC3CCN(Cc4ccccc4)CC3)ccc21: > 1
3) COc1ccc2c(c1)cc(C(=O)NCc1ccccc1)n2C: > 1
4) CCOC(=O)c1cc2cc(OCCCC3CCN(Cc4ccccc4)CC3)ccc2n1C: > 370
5) Cn1c(C(=O)Nc2ccccc2)cc2cc(OCCCC3CCN(Cc4ccccc4)CC3)ccc21: > 1
6) Cn1c(CO)cc2cc(OCCCC3CCN(Cc4ccccc4)CC3)ccc21: > 416
